ATTRIBUTE MEASURED: melting point

Challenge: Provide one value: measured melting point of Cc1cc(Oc2ccc(NS(=O)(=O)c3ccc4c(c3)CC(=O)N4C)c(F)c2)c2cccc(C(F)(F)F)c2n1 [Example C19]
Response given: 225 to 226 °C

Challenge: Provide one value: measured melting point of COc1cc2nccc(Oc3ccc(NS(=O)(=O)c4ccc(Br)c(Cl)c4)c(F)c3)c2cc1OC [Example A60]
Response given: 231 to 232 °C

Challenge: Supply measured melting point of COc1cc2c(Oc3ccc(NS(=O)(=O)c4cc(F)ccc4F)cc3F)ccnc2cc1OCCCN1CCCC(C)C1 (stereo not drawn) [Example D36] in your reply.
Response given: 103 to 107 °C

Challenge: Quickly give me recorded melting point for Cc1cc(Oc2ccc(NS(=O)(=O)c3cccc4ccccc34)c(F)c2)c2cccc(C(F)(F)F)c2n1 [Example C04]
Response given: 232 to 234 °C

Challenge: Read the entry COc1cc(S(=O)(=O)Nc2ccc(Oc3ccnc4cc(OCCCN5CCOCC5)c(OC)cc34)c(F)c2)ccc1F [Example D44] and write its reported melting point.
Response given: 90 to 93 °C

Challenge: Recall and state the measured melting point for COc1cc(S(=O)(=O)Nc2ccc(Oc3ccnc4cc(OC)c(OC)cc34)c(F)c2)ccc1F [Example A109] .
Response given: 202 to 204 °C

Challenge: Provide measured melting point value, entry: Cc1cc(Oc2ccc(NS(=O)(=O)c3csc4ccccc34)c(F)c2)c2cccc(C(F)(F)F)c2n1 [Example C18]
Response given: 242 to 244 °C

Challenge: Item COc1cc2nccc(Oc3ccc(NS(=O)(=O)c4cc(C)ccc4NC(C)=O)cc3)c2cc1OC [Example A65] : provide melting point
Response given: 134 to 136 °C

Challenge: Quote melting point reported for COc1cc2nccc(Oc3ccc(NS(=O)(=O)c4ccccc4C(F)(F)F)c(C)c3)c2cc1OC [Example A113] please.
Response given: 254 to 257 °C

Challenge: Query melting point for COc1cc2nccc(Oc3ccc(NS(=O)(=O)c4cc(F)ccc4F)c(C)c3)c2cc1OC [Example A151]
Response given: 259 to 260 °C

Challenge: Output measured melting point for this item: COc1cc2nccc(Oc3ccc(NS(=O)(=O)c4ccc(Br)c(F)c4)c(F)c3)c2cc1OC [Example A11]
Response given: 209 to 211 °C

Challenge: Name the recorded melting point of the compound listed here: COc1cccc(S(=O)(=O)Nc2ccc(Oc3ccnc4cc(OC)c(OC)cc34)cc2F)c1 [Example A27]
Response given: 224 to 225 °C

Challenge: Respond only with melting point recorded for COc1cc2nccc(Oc3ccc(NS(=O)(=O)c4ccc(Cl)cc4F)c(F)c3)c2cc1OC [Example A13]
Response given: 218 to 219 °C

Challenge: Look up and state reported melting point for Cc1cc(Oc2ccc(NS(=O)(=O)c3ccc(OCc4c(C)noc4C)cc3)cc2F)c2cccc(C(F)(F)F)c2n1 [Example C14]
Response given: 193 to 195 °C

Challenge: Look up melting point of COc1cc2nccc(Oc3ccc(NS(=O)(=O)c4cc(Cl)sc4Cl)c(F)c3)c2cc1OC [Example A18] and report it.
Response given: 223 to 225 °C
